Ref: patent US7732464B2

- Target Or Test System: h5-HT4b (Homo sapiens)
- Construct: expressed in transfected cells; host or cells: HEK 293 (clone 9), membrane preparation
- Sequence (Q13639 whole entry): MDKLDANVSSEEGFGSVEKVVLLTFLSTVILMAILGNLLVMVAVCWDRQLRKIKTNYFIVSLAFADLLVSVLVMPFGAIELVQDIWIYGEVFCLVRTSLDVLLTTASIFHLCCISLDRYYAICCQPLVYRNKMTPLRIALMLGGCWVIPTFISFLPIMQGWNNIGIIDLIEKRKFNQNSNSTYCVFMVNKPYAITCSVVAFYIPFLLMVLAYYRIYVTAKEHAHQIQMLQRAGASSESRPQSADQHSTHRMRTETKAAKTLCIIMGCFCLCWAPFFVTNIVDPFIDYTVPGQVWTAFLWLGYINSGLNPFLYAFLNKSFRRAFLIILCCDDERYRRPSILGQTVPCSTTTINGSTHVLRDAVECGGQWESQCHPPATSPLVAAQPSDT
- Measurement Protocol: 5HT4 antagonism: [3H]GR113808 binding to membranes of h5-HT4b-HEK 293 clone 9 cells
- Settings: displacement of [3H]GR113808 0.1 nM; h5-HT4b-HEK 293 membranes; 30 min at 25° C.; read-out: pIC50 (5HT4 antagonistic data) (converted)
- Procedure: h5-HT4b-HEK 293 clone 9 cells were cultured in 150 mm Petri dishes and washed twice with cold PBS. The cells were then scraped from the plates and suspended in 50 mM Tris-HCl buffer, pH 7.4 and harvested by centrifugation at 23,500 rpm for 10 minutes. The pellet was resuspended in 5 mM Tris-HCl, pH 7.4 and homogenized with an Ultra Turrax homogenizer. The membranes were collected by centrifugation at 30,000 rpm for 20 min, resuspended in 50 mM Tris-HCl pH 7.4 and stored at −80° C. […]
Endpoint: log10 of IC50 (log10 of the value in nM)
The common logarithm of IC50 in nM is what is listed.

Use the examples below as a reference point.
O=C(NC[C@@H]1CCN(CCCc2cc(O)no2)C[C@H]1O)c1cc(F)cc2c1OCCO2 [Compound 6]; 3.44
O=C(NCC1CCN(CCCCn2ccc(O)n2)CC1O)c1cc(Cl)c(Cl)c2c1OCCCO2 (stereo not drawn) [Compound 29]; -0.06
Cc1cc2c(c(C(=O)NCC3CCN(CCCN4CC(=O)NC4=O)CC3O)c1)OCCCO2 (stereo not drawn) [Compound 24]; 0.85
CO[C@@H]1CN(CCCCn2ccc(O)n2)CC[C@H]1CNC(=O)c1cc(Cl)c(Br)c2c1OCCCO2 (relative stereo) [Compound 30]; 0.00
COC1CN(CCCc2cc(O)no2)CCC1CNC(=O)c1cc(Cl)cc2c1OCCCO2 (stereo not drawn) [Compound 39]; 1.36
COC1CN(CCCCn2ccc(O)n2)CCC1CNC(=O)c1cc(Cl)c(Cl)c2c1OCCCO2 (stereo not drawn) [Compound 32]; -0.12
O=C(NC[C@@H]1CCN(CCCn2nn[nH]c2=O)C[C@H]1O)c1cc(Cl)cc2c1OCCCO2 [Compound 16]; 1.26
COc1ccc(C(=O)NCC2CCN(CCCc3cc(O)no3)CC2OC)c2c1OCCCO2 (stereo not drawn) [Compound 44]; 2.57
O=C(NC[C@@H]1CCN(CCCc2cc(O)no2)C[C@H]1O)c1cc(Cl)cc2c1OCCCO2 [Compound 27]; 1.01
COC1CN(CCCCn2ccc(O)n2)CCC1CNC(=O)c1cc(C#N)cc2c1OCCCO2 (stereo not drawn) [Compound 25]; 1.53

### Prompt Requested field: log10 of IC50. Item: O=C(NC[C@@H]1CCN(CCCc2cc(O)no2)C[C@H]1O)c1cc(F)cc2c1OCCCO2 [Compound 36]
### Response 1.15

### Prompt If you can, please state the reported log10 of IC50 value of Cc1cc2c(c(C(=O)NC[C@@H]3CCN(CCCCc4nnn[nH]4)C[C@H]3O)c1)OCCCO2 [Compound 13] .
### Response 1.12
